List of MIC values.
Tested on: Staphylococcus aureus
Assay: Antibacterial activity against Staphylococcus aureus Smith after 18 hrs by serial agar dilution method
Format: functional

For orientation, consider the following solved cases.
Query :: For `NC[C@H]1O[C@@H](O[C@H]([C@H]2O[C@@H](n3ccc(=O)[nH]c3=O)[C@H](O)[C@@H]2O)[C@H](N)C(=O)N[C@@H](CO)C(=O)O)[C@H](O)[C@@H]1O` , what is its reported MIC?
Result :: > 100 µg/mL

Query :: For the compound shown here, `NC[C@H]1O[C@@H](O[C@H]([C@H]2O[C@@H](n3ccc(=O)[nH]c3=O)[C@H](O)[C@@H]2O)[C@H](N)C(=O)N[C@H](COC(=O)c2ccc(-c3ccccc3)cc2)C(=O)O)[C@H](O)[C@@H]1O` , give the reported MIC.
Result :: > 100 µg/mL

Query :: Looking for the measured MIC of `NC[C@H]1O[C@@H](O[C@H]([C@H]2O[C@@H](n3ccc(=O)[nH]c3=O)[C@H](O)[C@@H]2O)[C@@H]2NC(=O)[C@H](COC(=O)c3ccc(-c4ccccc4)cc3)NC2=O)[C@H](O)[C@@H]1O` , can you help?
Result :: > 100 µg/mL

Would you kindly look at the next entry?
Query :: Any idea what MIC was measured for `CCCCCCCCCCCCCCCC(=O)OC[C@H](NC(=O)[C@@H](N)[C@H](O[C@@H]1O[C@H](CN)[C@@H](O)[C@H]1O)[C@H]1O[C@@H](n2ccc(=O)[nH]c2=O)[C@H](O)[C@@H]1O)C(=O)O` ?
Result :: 25 µg/mL

----------
Tested on: Micrococcus luteus
Assay: Antibacterial activity against Micrococcus luteus FDA16 after 18 hrs by serial agar dilution method
Format: functional
Observation Type: MIC

Worked cases, MIC given:
Query :: Quick check: MIC of `CCCCCCCCCCCCCCCC(=O)OC[C@@H](NC(=O)[C@@H](N)[C@H](O[C@@H]1O[C@H](CN)[C@@H](O)[C@H]1O)[C@H]1O[C@@H](n2ccc(=O)[nH]c2=O)[C@H](O)[C@@H]1O)C(=O)O` ?
Result :: 50 µg/mL

Query :: Sample `CCCCCCCCCCCCCCCC(=O)OC[C@@H]1NC(=O)[C@H]([C@H](O[C@@H]2O[C@H](CN)[C@@H](O)[C@H]2O)[C@H]2O[C@@H](n3ccc(=O)[nH]c3=O)[C@H](O)[C@@H]2O)NC1=O` — what was its MIC?
Result :: 25 µg/mL

Query :: // lookup MIC for `NC[C@H]1O[C@@H](O[C@H]([C@H]2O[C@@H](n3ccc(=O)[nH]c3=O)[C@H](O)[C@@H]2O)[C@@H]2NC(=O)[C@@H](COC(=O)c3ccc(-c4ccccc4)cc3)NC2=O)[C@H](O)[C@@H]1O`
Result :: > 100 µg/mL

Others:
Query :: Given `NC[C@H]1O[C@@H](O[C@H]([C@H]2O[C@@H](n3ccc(=O)[nH]c3=O)[C@H](O)[C@@H]2O)[C@H](N)C(=O)N[C@H](COC(=O)c2ccc(-c3ccccc3)cc2)C(=O)O)[C@H](O)[C@@H]1O` , state its recorded MIC.
Result :: > 100 µg/mL

----------
Tested on: Mycolicibacterium smegmatis
Assay: Antibacterial activity against Mycobacterium smegmatis ATCC607 after 42 hrs by serial agar dilution method
Format: functional
Observation Type: MIC

Worked cases, answers included:
Query :: Fill blank: measured MIC of the compound `CCCCCCCCCCCCCCCC(=O)OC[C@@H](NC(=O)[C@@H](N)[C@H](O[C@@H]1O[C@H](CN)[C@@H](O)[C@H]1O)[C@H]1O[C@@H](n2ccc(=O)[nH]c2=O)[C@H](O)[C@@H]1O)C(=O)O` is ____.
Result :: 50 µg/mL

Query :: # MIC lookup, item `NC[C@H]1O[C@@H](O[C@H]([C@H]2O[C@@H](n3ccc(=O)[nH]c3=O)[C@H](O)[C@@H]2O)[C@H](N)C(=O)N[C@@H](CO)C(=O)O)[C@H](O)[C@@H]1O`
Result :: 100 µg/mL

Query :: Returns the measured MIC for the input compound. Input: `CCCCCCCCCCCCCCCC(=O)OC[C@H](NC(=O)[C@@H](N)[C@H](O[C@@H]1O[C@H](CN)[C@@H](O)[C@H]1O)[C@H]1O[C@@H](n2ccc(=O)[nH]c2=O)[C@H](O)[C@@H]1O)C(=O)O`
Result :: 100 µg/mL

Query :: If you can, please state the reported MIC value of `NC[C@H]1O[C@@H](O[C@H]([C@H]2O[C@@H](n3ccc(=O)[nH]c3=O)[C@H](O)[C@@H]2O)[C@@H]2NC(=O)[C@@H](COC(=O)c3ccc(-c4ccccc4)cc3)NC2=O)[C@H](O)[C@@H]1O` .
Result :: > 100 µg/mL

Query :: Need MIC of `NC[C@H]1O[C@@H](O[C@H]([C@H]2O[C@@H](n3ccc(=O)[nH]c3=O)[C@H](O)[C@@H]2O)[C@@H]2NC(=O)[C@H](COC(=O)c3ccc(-c4ccccc4)cc3)NC2=O)[C@H](O)[C@@H]1O` , thanks.
Result :: 100 µg/mL

New cases:
Query :: Which MIC reading was recorded for the compound `NC[C@H]1O[C@@H](O[C@H]([C@H]2O[C@@H](n3ccc(=O)[nH]c3=O)[C@H](O)[C@@H]2O)[C@H](N)C(=O)N[C@@H](COC(=O)c2ccc(-c3ccccc3)cc2)C(=O)O)[C@H](O)[C@@H]1O` ?
Result :: 100 µg/mL

Query :: Please report the recorded MIC for `CCCCCCCCCCCCCCCC(=O)OC[C@@H]1NC(=O)[C@H]([C@H](O[C@@H]2O[C@H](CN)[C@@H](O)[C@H]2O)[C@H]2O[C@@H](n3ccc(=O)[nH]c3=O)[C@H](O)[C@@H]2O)NC1=O` .
Result :: 100 µg/mL

Query :: I would be grateful if you could share the reported MIC for `NC[C@H]1O[C@@H](O[C@H]([C@H]2O[C@@H](n3ccc(=O)[nH]c3=O)[C@H](O)[C@@H]2O)[C@H](N)C(=O)N[C@H](COC(=O)c2ccc(-c3ccccc3)cc2)C(=O)O)[C@H](O)[C@@H]1O` .
Result :: 100 µg/mL

Data origin: ChEMBL document CHEMBL1144047
